- Test system: U2OS
- experiment_notes: Incucyte cell viability with U2OS; also: unitless GR value; below 1 slowed growth and below 0 cell loss
- Assay type: toxicity, cell-based
- experimental_conditions: human, 0 h, 10 µM, compound concentration 10 uM, replicate number 1
test_readout: Growth Rate

Query :: Provide the documented Growth Rate with U2OS as the system for C#Cc1cnc2[nH]cc(-c3cccc4c3CCN4C(=O)[C@@H]3CCCN3C#N)c2c1
Result :: 0.82

Query :: Find the measured Growth Rate: item CN(C)C(=O)c1cc2cnc(Nc3ccc(N4CCN(CCCCNC(=O)COc5cccc6c5C(=O)N(C5CCC(=O)NC5=O)C6=O)CC4)cn3)nc2n1C1CCCC1 (centres undefined) , target or system U2OS.
Result :: -1

Query :: Query for U2OS: what Growth Rate does the record show for COc1cc(CN(CCN)C(=O)N[C@@H](C)c2ccccc2)ccc1OCc1ccccc1.Cl ?
Result :: -0.64

Now, please, on to the next compound.
Query :: Please state recorded Growth Rate (tested on U2OS) of Cc1c(NC(=O)COc2ccc(Cl)cc2C(=O)c2cc(F)cc(C(F)(F)F)c2)ccc(C(=O)O)c1F
Result :: 0.29
